- assayed_system: DCN1-UBC12 interaction (Homo sapiens (Human), UniProt Q96GG9)
- Sequence (Q96GG9 60-248 limits assumed): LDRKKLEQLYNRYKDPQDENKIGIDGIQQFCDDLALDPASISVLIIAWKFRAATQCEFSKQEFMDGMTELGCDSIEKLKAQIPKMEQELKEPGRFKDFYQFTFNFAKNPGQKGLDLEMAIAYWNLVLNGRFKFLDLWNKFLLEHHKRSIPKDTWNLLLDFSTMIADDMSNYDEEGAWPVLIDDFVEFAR
- assay_explanation: biochemical
- Type: binding
- conditions: read-out: TR-FRET IC50
endpoint_name: IC50 (µM)
Report the figure in µM without appending any unit label.

Ask: # get_value(readout='IC50', item= CCCCN1CCC(N(Cc2ccccc2)C(=O)Nc2cccc([N+](=O)[O-])c2)CC1 )
Result: 1.85

Ask: # get_value(readout='IC50', item= C=CC(=O)NCc1cccc(CN(C(=O)Nc2cccc(C(F)(F)F)c2)C2CCN(C(C)CCC)CC2)c1 (stereo not drawn) [drawing 845] )
Result: 0.018

Ask: # get_value(readout='IC50', item= CCCC(C)N1CCC(N(Cc2ccccc2)C(=O)Nc2ccc(OC)c(Cl)c2)CC1 (stereo not drawn) )
Result: 4.05

Ask: # get_value(readout='IC50', item= COc1cc(C(=O)N2CCC(c3nc4ccccc4s3)CC2)cc(OC)c1OC [D2] )
Result: 8.53

Ask: # get_value(readout='IC50', item= CCCC(C)N1CCC(N(Cc2ccccc2)C(=O)Nc2ccc3ccccc3c2)CC1 (stereo not drawn) )
Result: 0.0789
